Every entry's value here was drawn from PubChem BioAssay.

Test: liver-stage malaria parasite load reduction – cell-based, known kinase inhibitor set, luminescence, hepatoma host viability (AID 624392);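 note: infected cells incubated roughly two days before readout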
Conditions: Plasmodium liver stage in hepatoma cells, luciferase luminescence, concentration not given here; measured here: host liver cell viability
Listing of recorded liver cell % of control by entry.
# output: bare number, implied unit %

Previously resolved entries follow.
| COMPOUND | UNIT_NAME | liver cell % of control |
| --- | --- | --- |
| CCN1CCN(Cc2ccc(C(=O)Nc3ccc(C)c(NCc4cnc(NC(=O)OC)cn4)c3)cc2C(F)(F)F)CC1 | % | 105 |
| CC(C)C(CO)N(Cc1cccc(F)c1)c1nc(Nc2cccc(Cl)c2)c2ncn(C(C)C)c2n1 (centres undefined) | % | 91.9 |
| COc1cc(NC(=O)c2cc3cccc(OC)c3o2)cc(C(=O)Nc2cccc(C(F)(F)F)c2)c1 | % | 95.6 |
| CCN1CCN(Cc2ccc(NC(=O)c3ccc(C)c(NC(=O)c4cccc(-c5cn[nH]c(=O)c5)c4)c3)cc2C(F)(F)F)CC1 | % | 103 |
| COc1cc(NC(=O)c2ccno2)cc(C(=O)Nc2cccc(C(F)(F)F)c2)c1 | % | 96.7 |
| CC(C)n1cnc2c(NCc3ccccc3)nc(NCc3ccccc3)nc21 | % | 91.8 |

Which measured liver cell % of control value corresponds to COc1cccc(Nc2nccc(-c3cnn4ncccc34)n2)c1 ?
85.6

Which measured liver cell % of control value corresponds to Nc1cc(Nc2ccc(S(N)(=O)=O)cc2)ncn1 ?
97.7

Which measured liver cell % of control value corresponds to C=CC(=O)Nc1ccc(Nc2ccnc(Nc3ccc(N4CCN(C)CC4)cc3)n2)cc1 ?
105

Which measured liver cell % of control value corresponds to Cc1ccc(-c2c(C(=O)CCl)n(CCO)c3ncnc(N)c23)cc1 ?
90.7

Which measured liver cell % of control value corresponds to CCN1CCN(Cc2ccc(NC(=O)c3cc(NC(=O)c4cnn(-c5ccccc5)c4N)cc(OC)c3)cc2C(F)(F)F)CC1 ?
109

Which measured liver cell % of control value corresponds to C=CC(=O)Nc1cccc(Oc2ccnc(Nc3ccc(N4CCN(C)CC4)cc3)n2)c1 ?
106

Which measured liver cell % of control value corresponds to CCN1CCN(Cc2ccc(NC(=O)c3cc(NC(=O)C(=O)c4c[nH]c5ccccc45)cc(OC)c3)cc2C(F)(F)F)CC1 ?
92.9

Which measured liver cell % of control value corresponds to O=C(Nc1ccc(Oc2ccc3nc(NC(=O)c4ccco4)[nH]c3c2)cc1)Nc1cc(C(F)(F)F)ccc1F ?
140
